Entry source: patent US10676471B2

Test system: BT20 Cell
TEST_DETAILS: Cancer Cell Lysate Total L-Glutamate Assay
Assay type: cell-based
SETUP_CONDITIONS: Homo sapiens, BT-20, 2 h, total L-glutamate in cell lysate, BT20 cells, 2 hour incubation with test compound
pIC50: −log10 of the molar value.
Please enter TRUE where pIC50 is greater than or equal to 8, and FALSE where it is lower.

Some solved cases for reference:
- COMPOUND: "CCC(=O)Nc1ccc(C[C@@H]2CC[C@H](c3nnc(NC(=O)CCOC)s3)C2)nn1 (single isomer, unassigned) [Example 90]"
  LABEL_VALUE: "TRUE"
- COMPOUND: "CC(=O)Nc1nnc(C[C@@H]2CC[C@H](c3nnc(NC(=O)Cc4ccccn4)s3)C2)s1 (single isomer, unassigned) [Example 57]"
  LABEL_VALUE: "FALSE"
- COMPOUND: "CC(=O)Nc1nnc(C[C@@H]2CC[C@H](c3nnc(NC(=O)Cc4cncnc4)s3)C2)s1 (single isomer, unassigned) [Example 58]"
  LABEL_VALUE: "FALSE"
- COMPOUND: "Nc1nnc(CC2CC[C@H](c3nnc(NC(=O)Cc4ccccc4)s3)C2)s1 (single isomer, unassigned) [Example 64]"
  LABEL_VALUE: "FALSE"

With those in mind, consider the next compound.
pIC50 >= 8 for O=C(Cc1ccccn1)Nc1ccc(C2CC3(C2)CC(c2ccc(NC(=O)Cc4ccccn4)nn2)C3)nn1 (racemic) [Example 25] ? TRUE
